Molecular target: CDK2 (Homo sapiens, UniProt P24941)
Construct: HEK293 clonal lines with CRISPR KI HiBiT tag on CDK2 proteins; host or cells: HEK293 clonal line, CRISPR knock-in HiBiT-CDK2, stably expressing LgBiT
Assay: HiBiT assay (CDK2 degradation)
Format: cell-based
Settings: HEK293 clonal line with CRISPR KI HiBiT tag on CDK2, 24 hours, HiBiT Lysis Reagent
# reported Dmax; entries follow
metric: Dmax

INSERT INTO measurements (molecule, experimental_target, metric, observed_measurement) VALUES
  ('CC1(COC(=O)NCc2ccc3c(c2)C(=O)N(C2CCC(=O)NC2=O)C3)CCCO1 (centres unmarked)', 'CDK2 (Homo sapiens, UniProt P24941)', 'Dmax', '≤ 10%'),
  ('CC(C)C1CC(COC(=O)NCc2ccc3c(c2)C(=O)N(C2CCC(=O)NC2=O)C3)C1 (centres unmarked)', 'CDK2 (Homo sapiens, UniProt P24941)', 'Dmax', '10 to 50%'),
  ('O=C1CCC(N2Cc3ccc(CNC(=O)OC4CCOC4)cc3C2=O)C(=O)N1 (centres unmarked)', 'CDK2 (Homo sapiens, UniProt P24941)', 'Dmax', '≤ 10%'),
  ('O=C1CCC(N2Cc3ccc(CNC(=O)OC4CC5(CCC5)C4)cc3C2=O)C(=O)N1 (centres unmarked)', 'CDK2 (Homo sapiens, UniProt P24941)', 'Dmax', '10 to 50%'),
  ('CC(C)C1CCC(OC(=O)NCc2ccc3c(c2)C(=O)N(C2CCC(=O)NC2=O)C3)CC1 (centres unmarked)', 'CDK2 (Homo sapiens, UniProt P24941)', 'Dmax', '50 to 80%'),
  ('CC(C)(C)C1CC(OC(=O)NCc2ccc3c(c2)C(=O)N(C2CCC(=O)NC2=O)C3)C1 (centres unmarked)', 'CDK2 (Homo sapiens, UniProt P24941)', 'Dmax', '50 to 80%'),
  ('CC1(CCCOC(=O)NCc2ccc3c(c2)C(=O)N(C2CCC(=O)NC2=O)C3)CC1 (centres unmarked)', 'CDK2 (Homo sapiens, UniProt P24941)', 'Dmax', '50 to 80%'),
  ('C[C@H]1CCC[C@@H]1OC(=O)NCc1ccc2c(c1)C(=O)N(C1CCC(=O)NC1=O)C2 (some centres unmarked)', 'CDK2 (Homo sapiens, UniProt P24941)', 'Dmax', '10 to 50%'),
  ('O=C1CCC(N2Cc3ccc(CNC(=O)OCCC4CC(F)(F)C4)cc3C2=O)C(=O)N1 (centres unmarked)', 'CDK2 (Homo sapiens, UniProt P24941)', 'Dmax', '10 to 50%'),
  ('COC1CC(COC(=O)NCc2ccc3c(c2)C(=O)N(C2CCC(=O)NC2=O)C3)C1 (centres unmarked)', 'CDK2 (Homo sapiens, UniProt P24941)', 'Dmax', '10 to 50%'),
  ('O=C1CCC(N2Cc3ccc(CNC(=O)OCC4OCCc5ccccc54)cc3C2=O)C(=O)N1 (centres unmarked)', 'CDK2 (Homo sapiens, UniProt P24941)', 'Dmax', '≤ 10%');

###

Target: CDK2 (Homo sapiens, UniProt P24941)
Construct: HEK293 clonal lines with CRISPR KI HiBiT tag on CDK2 proteins; host or cells: HEK293 clonal line, CRISPR knock-in HiBiT-CDK2, stably expressing LgBiT
Assay: NanoBiT assay (CDK2 degradation)
Format: cell-based
Conditions: HEK293, HEK293 clonal line with CRISPR KI HiBiT tag on CDK2, Endurazine live cell substrate, 24 hours
# reported Dmax; entries follow
metric: Dmax

INSERT INTO assay_data (molecule, metric, observed_measurement) VALUES
  ('O=C1CCC(N2Cc3cc(F)c(CNC(=O)OCC4CC5(CCC5)C4)cc3C2=O)C(=O)N1 (stereo not shown) [Compound 123]', 'Dmax', '10 to 50%'),
  ('O=C1CCC(N2Cc3c(F)cc(CNc4nnc(C5CC6(CCC6)C5)o4)cc3C2=O)C(=O)N1 (stereo not shown) [Compound 142]', 'Dmax', '50 to 80%'),
  ('O=C1CCC(N2Cc3ccc(CNC(=O)OCC4CC5(CCCC5)C4)cc3C2=O)C(=O)N1 (stereo not shown) [Compound 115]', 'Dmax', '50 to 80%'),
  ('O=C1CCC(N2Cc3ccc(CNC(=O)OCC4CC5(C4)CC(F)(F)C5)cc3C2=O)C(=O)N1 (stereo not shown) [Compound 125]', 'Dmax', '10 to 50%'),
  ('O=C1CCC(N2Cc3ccc(CNC(=O)OC(c4ccccc4)C4CC5(CCC5)C4)cc3C2=O)C(=O)N1 (stereo not shown) [Compound 107]', 'Dmax', '50 to 80%'),
  ('CC1(COC(=O)NCc2ccc3c(c2)C(=O)N(C2CCC(=O)NC2=O)C3)CN(C2CC2)C1 (stereo not shown) [Compound 97]', 'Dmax', '≤ 10%'),
  ('CC(NC(=O)OCC1CC2(CCC2)C1)c1ccc2c(c1)C(=O)N(C1CCC(=O)NC1=O)C2 (stereo not shown) [Compound 114]', 'Dmax', '10 to 50%');

###

# reported Dmax; entries follow
Target: CDK2 (Homo sapiens)
Construct: HEK293 clonal lines with CRISPR KI HiBiT tag on CDK2 proteins; host or cells: HEK293 clonal line, CRISPR knock-in HiBiT-CDK2, stably expressing LgBiT
Assay: NanoBiT assay (CDK2 degradation)
Format: cell-based
Details: HEK293, HEK293 clonal line with CRISPR KI HiBiT tag on CDK2, Endurazine live cell substrate, 24 hours
metric: Dmax

INSERT INTO assay_data (compound, metric, observed_measurement) VALUES
  ('O=C1CCC(N2Cc3ccc(CNC(=O)OCC#CC4CC4)cc3C2=O)C(=O)N1 (stereo not drawn) [Compound 44]', 'Dmax', '10 to 50%'),
  ('O=C1CCC(N2Cc3c(F)cc(CNC(=O)OCC4CC5(CCC5)C4)cc3C2=O)C(=O)N1 (stereo not drawn) [Compound 122]', 'Dmax', '50 to 80%'),
  ('C[C@H](CC1CC1)OC(=O)NCc1ccc2c(c1)C(=O)N(C1CCC(=O)NC1=O)C2 (stereo partly drawn) [Compound 56]', 'Dmax', '10 to 50%'),
  ('CN(C(=O)OC(C)(C)C)C1CC(COC(=O)NCc2ccc3c(c2)C(=O)N(C2CCC(=O)NC2=O)C3)C1 (stereo not drawn) [Compound 96]', 'Dmax', '10 to 50%'),
  ('COc1cc(CNC(=O)OCC2CC3(CCC3)C2)cc2c1CN(C1CCC(=O)NC1=O)C2=O (stereo not drawn) [Compound 103]', 'Dmax', '10 to 50%'),
  ('CC12COC(COC(=O)NCc3ccc4c(c3)C(=O)N(C3CCC(=O)NC3=O)C4)(C1)C2 (stereo not drawn) [Compound 72]', 'Dmax', '≤ 10%');

###

# reported Dmax; entries follow
Biological target: CDK2 (Homo sapiens)
Construct: HEK293 clonal lines with CRISPR KI HiBiT tag on CDK2 proteins; host or cells: HEK293 clonal line, CRISPR knock-in HiBiT-CDK2, stably expressing LgBiT
Assay: NanoBiT assay (CDK2 degradation)
Format: cell-based
Details: HEK293, HEK293 clonal line with CRISPR KI HiBiT tag on CDK2, Endurazine live cell substrate, 24 hours
metric: Dmax

INSERT INTO measurements (compound, metric, observed_measurement) VALUES
  ('CC1(COC(=O)NCc2ccc3c(c2)C(=O)N(C2CCC(=O)NC2=O)C3)CCOCC1 (stereo not shown)', 'Dmax', '≤ 10%'),
  ('O=C1CCC(N2Cc3ccc(CNC(=O)OCCC4CC5(CCC5)C4)cc3C2=O)C(=O)N1 (stereo not shown)', 'Dmax', '10 to 50%'),
  ('CC(OC(=O)NCc1ccc2c(c1)C(=O)N(C1CCC(=O)NC1=O)C2)C1CC2(CCC2)C1 (stereo not shown)', 'Dmax', '10 to 50%'),
  ('O=C1CCC(N2Cc3ccc(CNC(=O)OC[C@@H]4C[C@H]4c4ccccc4)cc3C2=O)C(=O)N1 (stereo partly shown)', 'Dmax', '10 to 50%'),
  ('O=C1CCC(N2Cc3ccc(CNC(=O)OCCCC4CCC4)cc3C2=O)C(=O)N1 (stereo not shown)', 'Dmax', '10 to 50%'),
  ('CC1CN(CCOC(=O)NCc2ccc3c(c2)C(=O)N(C2CCC(=O)NC2=O)C3)C1 (stereo not shown)', 'Dmax', '10 to 50%'),
  ('O=C1CCC(N2Cc3ccc(CNC(=S)OCC4CC5(CCC5)C4)cc3C2=O)C(=O)N1 (stereo not shown)', 'Dmax', '10 to 50%'),
  ('O=C1CCC(N2Cc3ccc(CNC(=O)OCC4CCCCS4)cc3C2=O)C(=O)N1 (stereo not shown)', 'Dmax', '10 to 50%'),
  ('Cc1cc(CNC(=O)OCC2CC3(CCC3)C2)cc2c1CN(C1CCC(=O)NC1=O)C2=O (stereo not shown)', 'Dmax', '50 to 80%'),
  ('N#Cc1cc(CNC(=O)OCC2CC3(CCC3)C2)cc2c1CN(C1CCC(=O)NC1=O)C2=O (stereo not shown)', 'Dmax', '50 to 80%'),
  ('O=C1CCC(N2Cc3ccc(CNc4nnc(C5CC6(CCC6)C5)o4)c(O)c3C2=O)C(=O)N1 (stereo not shown)', 'Dmax', '50 to 80%'),
  ('COCC(OC(=O)NCc1ccc2c(c1)C(=O)N(C1CCC(=O)NC1=O)C2)C1CC1 (stereo not shown)', 'Dmax', '10 to 50%'),
  ('CC(=O)N1CCC(COC(=O)NCc2ccc3c(c2)C(=O)N(C2CCC(=O)NC2=O)C3)C1 (stereo not shown)', 'Dmax', '≤ 10%'),
  ('O=C1CCC(N2Cc3ccc(CNC(=O)OC(CC4CC4)C4CC5(CCC5)C4)cc3C2=O)C(=O)N1 (stereo not shown)', 'Dmax', '10 to 50%'),
  ('CC1(C)[C@@H]2C[C@@H](OC(=O)NCc3ccc4c(c3)C(=O)N(C3CCC(=O)NC3=O)C4)C[C@@H]21 (stereo partly shown)', 'Dmax', '50 to 80%'),
  ('O=C1CCC(N2Cc3ccc(CNc4nnc(C5CC6(CCC6)C5)o4)cc3C2=O)C(=O)N1 (stereo not shown)', 'Dmax', '50 to 80%'),
  ('CC1(C)C2CCC1(COC(=O)NCc1ccc3c(c1)C(=O)N(C1CCC(=O)NC1=O)C3)CC2 (stereo not shown)', 'Dmax', '10 to 50%'),
  ('Nc1c(CNc2nnc(C3CC4(CCC4)C3)o2)ccc2c1C(=O)N(C1CCC(=O)NC1=O)C2 (stereo not shown)', 'Dmax', '10 to 50%'),
  ('CC(C)[C@@H]1C[C@H]1COC(=O)NCc1ccc2c(c1)C(=O)N(C1CCC(=O)NC1=O)C2 (stereo partly shown)', 'Dmax', '10 to 50%'),
  ('C[C@@H]1CC[C@H](COC(=O)NCc2ccc3c(c2)C(=O)N(C2CCC(=O)NC2=O)C3)O1 (mixture of isomers)', 'Dmax', '10 to 50%'),
  ('O=C1CCC(N2Cc3ccc(CNC(=O)O[C@H]4C[C@@H]5C[C@H]4CC5(F)F)cc3C2=O)C(=O)N1 (mixture of isomers)', 'Dmax', '≤ 10%'),
  ('O=C1CCC(N2Cc3ccc(CNC(=O)OCC4(CC5CC5)CC4)cc3C2=O)C(=O)N1 (stereo not shown)', 'Dmax', '≤ 10%');
